Measurement target: Mycobacterial ClpC1-NTD (Mycobacterium tuberculosis)
Construct: caseinolytic protein C1 (ClpC1) N-terminal domain (NTD)
Method description: SPR binding affinity to ClpC1-NTD
Condition details: ClpC1 N-terminal domain; KD=kd/ka; Table 1; read-out: SPR KD NTD
pKd: −log10 of the molar value.
Answer condition not met if pKd is under 7, and condition met if it is 7 or more.

>>> class_name("C/C=C/C[C@@H]1NC(=O)[C@H](CC(C)C)N2C=C(C)C[C@@H](C2=O)N(C)C(=O)[C@H](C)NC(=O)[C@H](Cc2ccc(OC(C)=O)c([N+](=O)[O-])c2)NC(=O)[C@H](CC(C)C)N(C)C(=O)[C@H](Cc2cn(C(C)(C)[C@H](O)CCl)c3ccccc23)NC1=O")
"condition not met"
>>> class_name("C/C=C/C[C@@H]1NC(=O)[C@H](CC(C)C)N2C(=O)[C@H](CC(C)[C@H]2O)N(C)C(=O)[C@H](C)NC(=O)[C@H](Cc2ccc(OC(C)=O)c([N+](=O)[O-])c2)NC(=O)[C@H](CC(C)C)N(C)C(=O)[C@H](Cc2cn(C(C)(C)[C@H]3CO3)c3ccccc23)NC1=O (some centres unmarked)")
"condition met"

###

Measurement target: Mycobacterial ClpC1 FL (Mycobacterium tuberculosis)
Construct: N-terminal domain (NTD) and the full-length protein (FL) by surface plasmon resonance (SPR)
Sequence (P9WPC9 whole entry, the tested form may be a part): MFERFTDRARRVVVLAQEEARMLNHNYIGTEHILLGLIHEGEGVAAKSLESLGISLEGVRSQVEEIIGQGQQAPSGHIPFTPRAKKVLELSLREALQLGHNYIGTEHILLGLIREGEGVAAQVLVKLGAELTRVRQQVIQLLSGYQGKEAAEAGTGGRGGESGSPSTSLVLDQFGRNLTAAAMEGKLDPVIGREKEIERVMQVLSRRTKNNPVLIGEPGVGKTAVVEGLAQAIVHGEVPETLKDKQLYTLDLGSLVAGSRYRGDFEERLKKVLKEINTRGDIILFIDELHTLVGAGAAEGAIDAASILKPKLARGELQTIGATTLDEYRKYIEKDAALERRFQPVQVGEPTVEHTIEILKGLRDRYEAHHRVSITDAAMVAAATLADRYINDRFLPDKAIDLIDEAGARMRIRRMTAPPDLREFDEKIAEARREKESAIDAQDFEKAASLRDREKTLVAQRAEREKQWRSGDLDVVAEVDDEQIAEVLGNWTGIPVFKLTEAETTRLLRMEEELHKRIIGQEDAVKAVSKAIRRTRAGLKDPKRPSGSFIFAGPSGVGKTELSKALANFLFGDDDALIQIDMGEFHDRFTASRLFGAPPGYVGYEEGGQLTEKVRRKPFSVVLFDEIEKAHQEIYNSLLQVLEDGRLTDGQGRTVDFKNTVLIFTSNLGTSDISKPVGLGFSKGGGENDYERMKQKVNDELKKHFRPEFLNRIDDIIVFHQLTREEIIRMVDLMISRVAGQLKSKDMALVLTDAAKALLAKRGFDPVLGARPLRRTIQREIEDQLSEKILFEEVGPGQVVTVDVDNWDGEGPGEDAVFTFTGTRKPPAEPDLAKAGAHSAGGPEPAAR
Method description: SPR binding affinity to ClpC1 full-length protein (FL)
Condition details: ClpC1 full-length protein; KD=kd/ka; Table 1; read-out: SPR KD FL
pKd: −log10 of the molar value.
Value kind: pKd

>>> reported_value("C/C=C/C[C@@H]1NC(=O)[C@H](CC(C)C)N2C(=O)[C@H](CC(C)[C@H]2OC)N(C)C(=O)[C@H](C)NC(=O)[C@H](Cc2ccc(OC)c([N+](=O)[O-])c2)NC(=O)[C@H](CC(C)C)N(C)C(=O)[C@H](Cc2cn(C(C)(C)[C@H]3CO3)c3ccccc23)N(C)C1=O (stereo partly drawn)")
6.29
>>> reported_value("C/C=C/C[C@@H]1NC(=O)[C@H](CC(C)C)N2C(=O)[C@H](CC(C)[C@H]2OC)N(C)C(=O)[C@H](C)NC(=O)[C@H](Cc2ccc(O)c([N+](=O)[O-])c2)NC(=O)[C@H](CC(C)C)N(C)C(=O)[C@H](Cc2cn(C(C)(C)[C@H](O)COC)c3ccccc23)NC1=O (stereo partly drawn)")
7.10
>>> reported_value("C/C=C/C[C@@H]1NC(=O)[C@H](CC(C)C)N2C(=O)[C@H](CC(C)[C@H]2OCC)N(C)C(=O)[C@H](C)NC(=O)[C@H](Cc2ccc(O)c([N+](=O)[O-])c2)NC(=O)[C@H](CC(C)C)N(C)C(=O)[C@H](Cc2cn(C(C)(C)[C@H](O)CCl)c3ccccc23)NC1=O (stereo partly drawn)")
6.85
>>> reported_value("C/C=C/C[C@@H]1NC(=O)[C@H](CC(C)C)N2C(=O)[C@H](CC(C)[C@H]2O)N(C)C(=O)[C@H](C)NC(=O)[C@H](Cc2ccc(OC)c([N+](=O)[O-])c2)NC(=O)[C@H](CC(C)C)N(C)C(=O)[C@H](Cc2cn(C(C)(C)[C@H]3CO3)c3ccccc23)NC1=O (stereo partly drawn)")
6.88
>>> reported_value("C/C=C/C[C@@H]1NC(=O)[C@H](CC(C)C)N2C=C(C)C[C@@H](C2=O)N(C)C(=O)[C@H](C)NC(=O)[C@H](Cc2ccc(OC)c([N+](=O)[O-])c2)NC(=O)[C@H](CC(C)C)N(C)C(=O)[C@H](Cc2cn(C(C)(C)[C@H]3CO3)c3ccccc23)NC1=O")
6.05
>>> reported_value("C/C=C/C[C@@H]1NC(=O)[C@H](CC(C)C)N2C(=O)[C@H](CC(C)[C@H]2O)N(C)C(=O)[C@H](C)NC(=O)[C@H](Cc2ccc(O)c([N+](=O)[O-])c2)NC(=O)[C@H](CC(C)C)N(C)C(=O)[C@H](Cc2cn(C(C)(C)[C@H](O)CCl)c3ccccc23)NC1=O (stereo partly drawn)")
6.94

###

Measurement target: Mycobacterial ClpC1-NTD (Mycobacterium tuberculosis, UniProt P9WPC9)
Construct: caseinolytic protein C1 (ClpC1) N-terminal domain (NTD)
Method description: SPR binding affinity to ClpC1-NTD
Condition details: ClpC1 N-terminal domain; KD=kd/ka; Table 1; read-out: SPR KD NTD
Value kind: Kd (nM)

>>> reported_value("C/C=C/C[C@@H]1NC(=O)[C@H](CC(C)C)N2C(=O)[C@H](CC(C)[C@H]2O)N(C)C(=O)[C@H](C)NC(=O)[C@H](Cc2ccc(OC)c([N+](=O)[O-])c2)NC(=O)[C@H](CC(C)C)N(C)C(=O)[C@H](Cc2cn(C(C)(C)[C@H]3CO3)c3ccccc23)NC1=O (stereo partly shown)")
117
>>> reported_value("C/C=C/C[C@@H]1NC(=O)[C@H](CC(C)C)N2C(=O)[C@H](CC(C)[C@H]2OC(C)=O)N(C)C(=O)[C@H](C)NC(=O)[C@H](Cc2ccc(OC(C)=O)c([N+](=O)[O-])c2)NC(=O)[C@H](CC(C)C)N(C)C(=O)[C@H](Cc2cn(C(C)(C)[C@H]3CO3)c3ccccc23)NC1=O (stereo partly shown)")
33.8
>>> reported_value("C/C=C/C[C@@H]1NC(=O)[C@H](CC(C)C)N2C(=O)[C@H](CC(C)[C@H]2OC)N(C)C(=O)[C@H](C)NC(=O)[C@H](Cc2ccc(OC)c([N+](=O)[O-])c2)NC(=O)[C@H](CC(C)C)N(C)C(=O)[C@H](Cc2cn(C(C)(C)[C@H]3CO3)c3ccccc23)NC1=O (stereo partly shown)")
55.5
>>> reported_value("C/C=C/C[C@@H]1NC(=O)[C@H](CC(C)C)N2C(=O)[C@H](CC(C)[C@H]2OC)N(C)C(=O)[C@H](C)NC(=O)[C@H](Cc2ccc(OC)c([N+](=O)[O-])c2)NC(=O)[C@H](CC(C)C)N(C)C(=O)[C@H](Cc2cn(C(C)(C)[C@H]3CO3)c3ccccc23)N(C)C1=O (stereo partly shown)")
451

###

Measurement target: Mycobacterial ClpC1 FL (Mycobacterium tuberculosis)
Construct: N-terminal domain (NTD) and the full-length protein (FL) by surface plasmon resonance (SPR)
Method description: SPR binding affinity to ClpC1 full-length protein (FL)
Condition details: ClpC1 full-length protein; KD=kd/ka; Table 1; read-out: SPR KD FL
pKd: −log10 of the molar value.
pKd values, listed per item
Value kind: pKd

>>> reported_value("C/C=C/C[C@@H]1NC(=O)[C@H](CC(C)C)N2C(=O)[C@H](CC(C)[C@H]2O)N(C)C(=O)[C@H](C)NC(=O)[C@H](Cc2ccc(OC(C)=O)c([N+](=O)[O-])c2)NC(=O)[C@H](CC(C)C)N(C)C(=O)[C@H](Cc2cn(C(C)(C)[C@H]3CO3)c3ccccc23)NC1=O (stereo partly shown)")
7.14
>>> reported_value("C/C=C/C[C@@H]1NC(=O)[C@H](CC(C)C)N2C(=O)[C@H](CC(C)[C@H]2OCCC)N(C)C(=O)[C@H](C)NC(=O)[C@H](Cc2ccc(O)c([N+](=O)[O-])c2)NC(=O)[C@H](CC(C)C)N(C)C(=O)[C@H](Cc2cn(C(C)(C)[C@H](O)CCl)c3ccccc23)NC1=O (stereo partly shown)")
6.85
>>> reported_value("C/C=C/C[C@@H]1NC(=O)[C@H](CC(C)C)N2C(=O)[C@H](CC(C)[C@H]2OC)N(C)C(=O)[C@H](C)NC(=O)[C@H](Cc2ccc(O)c([N+](=O)[O-])c2)NC(=O)[C@H](CC(C)C)N(C)C(=O)[C@H](Cc2cn(C(C)(C)[C@H](O)CCl)c3ccccc23)NC1=O (stereo partly shown)")
6.79
>>> reported_value("C/C=C/C[C@@H]1NC(=O)[C@H](CC(C)C)N2C(=O)[C@H](CC(C)[C@H]2OC)N(C)C(=O)[C@H](C)NC(=O)[C@H](Cc2ccc(OC)c([N+](=O)[O-])c2)NC(=O)[C@H](CC(C)C)N(C)C(=O)[C@H](Cc2cn(C(C)(C)[C@H]3CO3)c3ccccc23)NC1=O (stereo partly shown)")
7.12

###

Measurement target: Mycobacterial ClpC1 FL (Mycobacterium tuberculosis)
Construct: N-terminal domain (NTD) and the full-length protein (FL) by surface plasmon resonance (SPR)
Method description: SPR binding affinity to ClpC1 full-length protein (FL)
Condition details: ClpC1 full-length protein; KD=kd/ka; Table 1; read-out: SPR KD FL
Experimental: Analysis of binding affinity to Mycobacterial ClpC1-NTD and FL by SPR. […] Kinetic rate constants (ka and kd) were determined by fitting the double-reference data globally to the 1:1 Langmuir model embedded in the Biacore T200 evaluation software (v3.0). KD values were then calculated from the two rate constants (KD=kd/ka). […]
Value kind: Kd

>>> reported_value("C/C=C/C[C@@H]1NC(=O)[C@H](CC(C)C)N2C=C(C)C[C@@H](C2=O)N(C)C(=O)[C@H](C)NC(=O)[C@H](Cc2ccc(OC(C)=O)c([N+](=O)[O-])c2)NC(=O)[C@H](CC(C)C)N(C)C(=O)[C@H](Cc2cn(C(C)(C)[C@H](O)CCl)c3ccccc23)NC1=O")
"513 nM"
>>> reported_value("C/C=C/C[C@@H]1NC(=O)[C@H](CC(C)C)N2C(=O)[C@H](CC(C)[C@H]2OC)N(C)C(=O)[C@H](C)NC(=O)[C@H](Cc2ccc(O)c([N+](=O)[O-])c2)NC(=O)[C@H](CC(C)C)N(C)C(=O)[C@H](Cc2cn(C(C)(C)[C@H]3CO3)c3ccccc23)NC1=O (stereo partly shown)")
"31.7 nM"
>>> reported_value("C/C=C/C[C@@H]1NC(=O)[C@H](CC(C)C)N2C=C(C)C[C@@H](C2=O)N(C)C(=O)[C@H](C)NC(=O)[C@H](Cc2ccc(O)c(N)c2)NC(=O)[C@H](CC(C)C)N(C)C(=O)[C@H](Cc2cn(C(C)(C)[C@H](O)CCl)c3ccccc23)NC1=O")
"319 nM"
>>> reported_value("C/C=C/C[C@@H]1NC(=O)[C@H](CC(C)C)N2C=C(C)C[C@@H](C2=O)N(C)C(=O)[C@H](C)NC(=O)[C@H](Cc2ccc(O)c([N+](=O)[O-])c2)NC(=O)[C@H](CC(C)C)N(C)C(=O)[C@H](Cc2cn(C(C)(C)[C@H](O)CCl)c3ccccc23)NC1=O")
"97.1 nM"
